Test system: T47D human breast carcinoma cells
procedure text: Ex Vivo Progestational Test: 3H-thymidine incorporation into T47-D cells
Assay type: cell-based
protocol conditions: T47D, antagonist, printed with - sign, R5020 (promegestone) induced proliferation, read-out: T47D: antagonist EC50 against R5020 induced proliferation
pEC50: −log10 of the molar value.
readout type: pEC50

- compound: "O=S(=O)(c1cc(Cl)ccc1Cl)N1CCC2CCc3cc(Cl)ccc3C2=N1 (centres unmarked)"
  pEC50: 6.31
- compound: "O=S(=O)(c1ccc(I)cc1)N1CCC2CCc3cc(Cl)ccc3C2=N1 (centres unmarked)"
  pEC50: 6.18

---

assayed target: rabbit uterine cytosolic progestin receptor (PR) (Oryctolagus cuniculus, UniProt P06186)
Sequence (P06186 1-930): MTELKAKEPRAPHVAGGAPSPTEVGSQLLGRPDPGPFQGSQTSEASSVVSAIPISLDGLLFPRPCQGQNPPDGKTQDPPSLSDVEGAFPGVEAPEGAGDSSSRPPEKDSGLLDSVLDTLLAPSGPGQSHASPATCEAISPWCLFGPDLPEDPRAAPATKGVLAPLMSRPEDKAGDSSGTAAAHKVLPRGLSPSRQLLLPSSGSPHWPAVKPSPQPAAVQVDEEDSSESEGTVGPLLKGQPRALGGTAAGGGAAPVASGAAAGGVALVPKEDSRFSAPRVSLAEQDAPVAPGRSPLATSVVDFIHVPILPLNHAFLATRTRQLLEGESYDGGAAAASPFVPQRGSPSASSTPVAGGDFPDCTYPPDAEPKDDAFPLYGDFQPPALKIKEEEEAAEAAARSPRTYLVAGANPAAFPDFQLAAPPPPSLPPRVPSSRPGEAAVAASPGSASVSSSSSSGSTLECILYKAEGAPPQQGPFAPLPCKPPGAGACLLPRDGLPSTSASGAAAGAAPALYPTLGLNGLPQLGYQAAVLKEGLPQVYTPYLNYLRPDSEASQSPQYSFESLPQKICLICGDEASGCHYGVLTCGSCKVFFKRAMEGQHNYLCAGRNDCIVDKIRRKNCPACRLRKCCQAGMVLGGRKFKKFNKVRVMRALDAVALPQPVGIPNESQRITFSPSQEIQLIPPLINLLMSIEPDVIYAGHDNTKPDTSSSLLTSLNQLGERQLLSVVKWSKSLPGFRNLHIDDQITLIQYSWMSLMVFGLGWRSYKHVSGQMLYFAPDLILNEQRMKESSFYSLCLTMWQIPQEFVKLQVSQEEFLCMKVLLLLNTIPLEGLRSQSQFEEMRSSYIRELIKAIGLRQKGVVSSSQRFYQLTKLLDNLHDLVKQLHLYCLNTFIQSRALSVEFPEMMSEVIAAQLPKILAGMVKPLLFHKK
pIC50: −log10 of the molar value.
readout type: pIC50

A. O=S(=O)(c1cc(Cl)ccc1Cl)N1CCC2CCc3cc(Cl)ccc3C2=N1 (centres unmarked)
B. O=S(=O)(c1ccc(I)cc1)N1CCC2CCc3c(ccc(Br)c3Br)C2=N1 (centres unmarked)
Exam item: Between the two listed entries A and B , which has its pIC50 at the higher number? Give the label under which the chosen entry appears.
Marked response: B
